target: human CAIX on CHO cells (CHO-hCAIX) (human, UniProt Q16790 38-459); test: flow cytometry on CHO-hCAIX cells
pEC50: −log10 of the molar value.
Form field: pEC50 (one value per entry).

BINDER | pEC50
Hu-H-YE-32-D6 (Fc fusion, also called humanized antibody from H-YE-32; not shown: human IgG1 Fc segment) QVQLVESGGGLVQPGGSLRLSCSASGGARNIFSFAAMAWYRQAPGKGLELVAVITSAGGTQYSSSVKGRFTISRDNSKKTLYLQMNSLRAEDTAVYYCNADYYQDYWGQGTQVTVSS | 8.02
H-YE-32 (Fc fusion, also called CAIX nanobody H-YE-32; not shown: human IgG1 Fc segment) QVQLQESGGGLVQPGGSLRLSCAASGGARNIFSFAAMAWYRQAPGKQRELVAVITSAGGTQYSSSVKGRFTISRDNAKKTVLLQMNSLKPEDTAVYYCNADYYQDYWGQGTQVTVSS | 7.84
